Entries and their Dmax values follow.
# Target of assay: Helios (Homo sapiens, UniProt Q96SW2+Q9UKS7)
# Construct: fluorescently labelled antibodies against Helios and Ikaros; endogenous in cells; host or cells: Jurkat cells
# Sequence (Q9UKS7 whole entry): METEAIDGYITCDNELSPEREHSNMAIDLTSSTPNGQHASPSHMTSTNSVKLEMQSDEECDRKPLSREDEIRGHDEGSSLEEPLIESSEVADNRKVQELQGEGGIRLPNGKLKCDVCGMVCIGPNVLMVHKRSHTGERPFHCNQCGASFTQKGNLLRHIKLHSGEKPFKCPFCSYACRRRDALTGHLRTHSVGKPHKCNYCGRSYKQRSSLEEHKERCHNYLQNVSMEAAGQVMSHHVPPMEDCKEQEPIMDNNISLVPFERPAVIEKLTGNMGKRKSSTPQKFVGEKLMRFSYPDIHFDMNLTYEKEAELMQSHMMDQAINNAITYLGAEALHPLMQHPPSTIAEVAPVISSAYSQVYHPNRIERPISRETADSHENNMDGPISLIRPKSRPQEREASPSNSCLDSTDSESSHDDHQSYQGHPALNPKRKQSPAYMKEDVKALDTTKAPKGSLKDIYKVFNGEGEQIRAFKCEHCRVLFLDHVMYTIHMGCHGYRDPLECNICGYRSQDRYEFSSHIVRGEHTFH
# Sequence (Q96SW2 whole entry): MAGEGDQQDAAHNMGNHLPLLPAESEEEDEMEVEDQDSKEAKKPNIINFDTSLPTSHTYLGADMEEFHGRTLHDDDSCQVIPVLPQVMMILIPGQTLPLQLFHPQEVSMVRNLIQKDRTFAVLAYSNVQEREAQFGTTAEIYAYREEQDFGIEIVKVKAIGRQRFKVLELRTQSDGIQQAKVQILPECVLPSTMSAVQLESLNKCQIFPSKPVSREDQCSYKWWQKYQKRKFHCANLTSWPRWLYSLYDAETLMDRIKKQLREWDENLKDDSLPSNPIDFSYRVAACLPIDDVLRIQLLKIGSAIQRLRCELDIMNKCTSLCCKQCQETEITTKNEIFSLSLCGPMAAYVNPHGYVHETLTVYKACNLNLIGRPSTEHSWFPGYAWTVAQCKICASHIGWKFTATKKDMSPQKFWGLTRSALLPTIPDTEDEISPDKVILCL
# Sequence (Q16531 whole entry partner): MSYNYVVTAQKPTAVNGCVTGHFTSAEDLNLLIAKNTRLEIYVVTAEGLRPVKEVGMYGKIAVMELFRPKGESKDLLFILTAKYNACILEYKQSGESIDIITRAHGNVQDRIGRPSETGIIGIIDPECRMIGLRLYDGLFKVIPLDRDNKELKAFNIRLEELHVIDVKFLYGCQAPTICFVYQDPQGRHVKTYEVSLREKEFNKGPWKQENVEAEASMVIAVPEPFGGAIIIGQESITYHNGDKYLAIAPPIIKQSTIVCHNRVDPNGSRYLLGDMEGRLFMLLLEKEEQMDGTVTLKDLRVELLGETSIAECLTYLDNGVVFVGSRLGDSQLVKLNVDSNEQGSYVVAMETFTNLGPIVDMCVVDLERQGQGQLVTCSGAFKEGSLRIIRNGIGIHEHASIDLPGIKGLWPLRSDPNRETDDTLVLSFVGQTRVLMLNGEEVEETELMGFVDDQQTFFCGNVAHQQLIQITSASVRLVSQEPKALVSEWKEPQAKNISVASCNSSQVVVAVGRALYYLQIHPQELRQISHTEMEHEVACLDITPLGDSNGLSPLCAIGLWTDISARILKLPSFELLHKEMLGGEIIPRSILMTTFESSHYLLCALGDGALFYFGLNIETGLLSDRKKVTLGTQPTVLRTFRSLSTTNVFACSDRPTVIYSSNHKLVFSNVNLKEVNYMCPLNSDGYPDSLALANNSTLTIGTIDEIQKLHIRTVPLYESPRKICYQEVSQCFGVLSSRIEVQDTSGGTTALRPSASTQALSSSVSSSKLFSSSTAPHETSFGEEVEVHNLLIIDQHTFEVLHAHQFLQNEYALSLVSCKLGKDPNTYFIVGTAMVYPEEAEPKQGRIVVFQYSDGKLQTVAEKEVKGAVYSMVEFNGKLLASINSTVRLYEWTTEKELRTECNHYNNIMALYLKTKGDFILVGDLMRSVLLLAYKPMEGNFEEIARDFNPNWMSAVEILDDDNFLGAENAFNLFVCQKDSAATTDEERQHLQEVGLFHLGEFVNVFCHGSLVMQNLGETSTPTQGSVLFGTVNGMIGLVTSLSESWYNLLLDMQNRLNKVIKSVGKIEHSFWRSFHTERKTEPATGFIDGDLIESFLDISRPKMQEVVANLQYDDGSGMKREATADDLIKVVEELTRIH
# Test protocol: Helios Cellular Degradation Assay (flow cytometry, Helios-PE antibody staining, 72 h)
# Assay type: cell-based
# Condition notes: Jurkat, Jurkat cells, 72 h incubation, flow cytometry; read-out: Helios Dmax
Reported property: Dmax (%)

| Compound | Assay result |
| --- | --- |
| O=C1CCC(N2Cc3cc(-c4cc(CN[C@H](CCO)c5ccccc5)ccn4)ccc3C2=O)C(=O)N1 (stereo partly shown) | 83 |
| O=C1CCC(N2Cc3cc(-c4cc(CNCCOc5ccccc5)ccn4)ccc3C2=O)C(=O)N1 (stereo not shown) | 95 |
| O=C1CCC(N2Cc3cc(-c4cc(CN5CCC6CCCC65)ccn4)ccc3C2=O)C(=O)N1 (stereo not shown) | 63 |
| O=C1CCC(N2Cc3cc(-c4cc(CN5CC[C@@H](c6ccccc6)C5)ccn4)ccc3C2=O)C(=O)N1 (stereo partly shown) | 91 |
| O=C1CCC(N2Cc3cc(-c4cc(CNCC(c5ccccc5)c5ccccc5)ccn4)ccc3C2=O)C(=O)N1 (stereo not shown) | 61 |
| CC(=O)N[C@H]1CCN(Cc2ccnc(-c3ccc4c(c3)CN(C3CCC(=O)NC3=O)C4=O)c2)C1 (stereo partly shown) | 81 |
| CN(Cc1ccc(F)cc1)Cc1ccnc(-c2ccc3c(c2)CN(C2CCC(=O)NC2=O)C3=O)c1 (stereo not shown) | 74 |
| CN(CCc1ccccc1)Cc1ccnc(-c2ccc3c(c2)CN(C2CCC(=O)NC2=O)C3=O)c1 (stereo not shown) | 80 |
| CCOC1CN(Cc2ccnc(-c3ccc4c(c3)CN(C3CCC(=O)NC3=O)C4=O)c2)C1 (stereo not shown) | 75 |
| CN(Cc1cccnc1)Cc1ccnc(-c2ccc3c(c2)CN(C2CCC(=O)NC2=O)C3=O)c1 (stereo not shown) | 76 |
| COCCNCc1ccnc(-c2ccc3c(c2)CN(C2CCC(=O)NC2=O)C3=O)c1 (stereo not shown) | 71 |
| CN(Cc1ccnc(-c2ccc3c(c2)CN(C2CCC(=O)NC2=O)C3=O)c1)CC1CCOC1 (stereo not shown) | 79 |
| O=C1CCC(N2Cc3cc(-c4cc(CNC5CCC(O)CC5)ccn4)ccc3C2=O)C(=O)N1 (stereo not shown) | 89 |
| O=C1CCC(N2Cc3cc(-c4cc(CN[C@@H]5CCC[C@@H]5c5ccccc5)ccn4)ccc3C2=O)C(=O)N1 (stereo partly shown) | 69 |
| CN(Cc1ccc(-n2ccnc2)cc1)Cc1ccnc(-c2ccc3c(c2)CN(C2CCC(=O)NC2=O)C3=O)c1 (stereo not shown) | 43 |
| NC(=O)C1CCN1Cc1ccnc(-c2ccc3c(c2)CN(C2CCC(=O)NC2=O)C3=O)c1 (stereo not shown) | 66 |

###

Entries and their Dmax values follow.
# Target of assay: Ikaros (Homo sapiens, UniProt Q13422)
# Construct: fluorescently labelled antibodies against Helios and Ikaros; endogenous in cells; host or cells: Jurkat cells
# Sequence (Q96SW2 whole entry partner): as the sequence (Q96SW2 whole entry) above
# Sequence (Q16531 whole entry partner): as the sequence (Q16531 whole entry partner) above
# Sequence (Q13422 whole entry): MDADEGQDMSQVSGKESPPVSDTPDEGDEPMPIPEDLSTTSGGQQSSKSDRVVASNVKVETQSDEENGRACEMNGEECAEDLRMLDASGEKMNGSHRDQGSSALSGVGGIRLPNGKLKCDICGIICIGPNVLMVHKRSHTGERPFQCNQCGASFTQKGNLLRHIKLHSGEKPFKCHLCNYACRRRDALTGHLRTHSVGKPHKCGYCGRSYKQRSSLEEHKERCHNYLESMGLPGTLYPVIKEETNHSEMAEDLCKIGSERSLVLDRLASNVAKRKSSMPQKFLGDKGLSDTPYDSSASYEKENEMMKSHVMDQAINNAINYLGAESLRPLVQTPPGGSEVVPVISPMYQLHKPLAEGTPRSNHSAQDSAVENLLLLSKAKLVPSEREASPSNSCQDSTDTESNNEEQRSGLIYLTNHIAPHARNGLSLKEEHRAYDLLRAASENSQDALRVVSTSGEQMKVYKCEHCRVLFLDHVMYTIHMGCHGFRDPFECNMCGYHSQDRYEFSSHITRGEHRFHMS
# Test protocol: Helios Cellular Degradation Assay, Ikaros readout (flow cytometry, Ikaros-Alexa488 antibody staining, 72 h)
# Type: cell-based
# Condition notes: Jurkat, Jurkat cells, 72 h incubation, flow cytometry; read-out: Ikaros Dmax

| Compound | Dmax, % |
| --- | --- |
| O=C1CCC(N2Cc3cc(-c4cc(CN5CCC(c6ccccc6)CC5)ccn4)ccc3C2=O)C(=O)N1 (stereo not shown) | 20 |
| CC1(C)CCN1Cc1ccnc(-c2ccc3c(c2)CN(C2CCC(=O)NC2=O)C3=O)c1 (stereo not shown) | 10 |
| O=C1CCC(N2Cc3cc(-c4cc(CNCc5ccccc5)ccn4)ccc3C2=O)C(=O)N1 (stereo not shown) | 16 |
| O=C1CCC(N2Cc3cc(-c4cc(CNCCN5CCOCC5)ccn4)ccc3C2=O)C(=O)N1 (stereo not shown) | 27 |
| CN(Cc1ccnc(-c2ccc3c(c2)CN(C2CCC(=O)NC2=O)C3=O)c1)Cc1cccc2[nH]ncc12 (stereo not shown) | 16 |
| O=C1CCC(N2Cc3cc(-c4cc(CNCC5(O)CCCCC5)ccn4)ccc3C2=O)C(=O)N1 (stereo not shown) | 11 |
| C[C@H]1CCCN1Cc1ccnc(-c2ccc3c(c2)CN(C2CCC(=O)NC2=O)C3=O)c1 (stereo partly shown) | 0 |
| O=C1CCC(N2Cc3cc(-c4cc(CN5CCN(C(=O)C6CCCO6)CC5)ccn4)ccc3C2=O)C(=O)N1 (stereo not shown) | 23 |
| CC1CCN(Cc2ccnc(-c3ccc4c(c3)CN(C3CCC(=O)NC3=O)C4=O)c2)CC1 (stereo not shown) | 16 |
| CN1CCC(N(C)Cc2ccnc(-c3ccc4c(c3)CN(C3CCC(=O)NC3=O)C4=O)c2)CC1 (stereo not shown) | 2 |

###

# Target of assay: Helios (Homo sapiens, UniProt Q96SW2+Q9UKS7)
# Construct: fluorescently labelled antibodies against Helios and Ikaros; endogenous in cells; host or cells: Jurkat cells
# Test protocol: Helios Cellular Degradation Assay (flow cytometry, Helios-PE antibody staining, 72 h)
# Format: cell-based
# Condition notes: Jurkat, Jurkat cells, 72 h incubation, flow cytometry; read-out: Helios Dmax
Reported property: Dmax (%)

| Compound | Assay result |
| --- | --- |
| CCN(CC)Cc1ccnc(-c2ccc3c(c2)CN(C2CCC(=O)NC2=O)C3=O)c1 (stereo not shown) | 78 |
| O=C1CCC(N2Cc3cc(-c4cc(CN5CCC5c5ccccc5)ccn4)ccc3C2=O)C(=O)N1 (stereo not shown) | 98 |
| O=C1CCC(N2Cc3cc(-c4cc(CN5CC(c6cccnc6)C5)c(F)cn4)ccc3C2=O)C(=O)N1 (stereo not shown) | 71 |
| O=C1CCC(N2Cc3cc(-c4cc(CN5CCC(C(c6ccccc6)c6ccccc6)CC5)ccn4)ccc3C2=O)C(=O)N1 (stereo not shown) | 3 |
| COc1cccc(CN(C)Cc2ccnc(-c3ccc4c(c3)CN(C3CCC(=O)NC3=O)C4=O)c2)c1 (stereo not shown) | 74 |
| O=C1CCC(N2Cc3cc(-c4cc(CN5CCN(Cc6ccc7c(c6)OCO7)CC5)ccn4)ccc3C2=O)C(=O)N1 (stereo not shown) | 37 |
| O=C1CN(Cc2ccnc(-c3ccc4c(c3)CN(C3CCC(=O)NC3=O)C4=O)c2)CCN1 (stereo not shown) | 24 |

###

# Target of assay: Helios (Homo sapiens, UniProt Q96SW2+Q9UKS7)
# Construct: fluorescently labelled antibodies against Helios and Ikaros; endogenous in cells; host or cells: Jurkat cells
# Test protocol: Helios Cellular Degradation Assay (flow cytometry, Helios-PE antibody staining, 72 h)
# Assay type: cell-based
# Condition notes: Jurkat, Jurkat cells, 72 h incubation, flow cytometry; read-out: Helios Dmax

| Compound | Dmax / % |
| --- | --- |
| CN(C)C1CCC(NCc2ccnc(-c3ccc4c(c3)CN(C3CCC(=O)NC3=O)C4=O)c2)CC1 (stereo not shown) | 80 |
| CN(Cc1ccc(S(=O)(=O)N(C)C)cc1)Cc1ccnc(-c2ccc3c(c2)CN(C2CCC(=O)NC2=O)C3=O)c1 (stereo not shown) | 3 |
| CC1CN(Cc2ccnc(-c3ccc4c(c3)CN(C3CCC(=O)NC3=O)C4=O)c2)C1 (stereo not shown) | 79 |
| O=C1CCC(N2Cc3cc(-c4cc(CN5CCN(C(=O)c6ccco6)CC5)ccn4)ccc3C2=O)C(=O)N1 (stereo not shown) | 3 |
| O=C1CCC(N2Cc3cc(-c4cc(CN(Cc5ccccc5)Cc5ccccc5)ccn4)ccc3C2=O)C(=O)N1 (stereo not shown) | 56 |
| CN(Cc1ccnc(-c2ccc3c(c2)CN(C2CCC(=O)NC2=O)C3=O)c1)Cc1cccc2[nH]ncc12 (stereo not shown) | 79 |
| CC1CCCN1Cc1ccnc(-c2ccc3c(c2)CN(C2CCC(=O)NC2=O)C3=O)c1 (stereo not shown) | 80 |

###

# Target of assay: Ikaros (Homo sapiens, UniProt Q13422)
# Construct: fluorescently labelled antibodies against Helios and Ikaros; endogenous in cells; host or cells: Jurkat cells
# Test protocol: Helios Cellular Degradation Assay, Ikaros readout (flow cytometry, Ikaros-Alexa488 antibody staining, 72 h)
# Assay type: cell-based
# Condition notes: Jurkat, Jurkat cells, 72 h incubation, flow cytometry; read-out: Ikaros Dmax

| Molecule | Dmax |
| --- | --- |
| CC1(C)CCN(Cc2ccnc(-c3ccc4c(c3)CN(C3CCC(=O)NC3=O)C4=O)c2)C1 (stereo not shown) [Example 118] | 12% |
| CCCN(C)Cc1ccnc(-c2ccc3c(c2)CN(C2CCC(=O)NC2=O)C3=O)c1 (stereo not shown) [Example 3] | 3% |
| CC(CO)N(C)Cc1ccnc(-c2ccc3c(c2)CN(C2CCC(=O)NC2=O)C3=O)c1 (stereo not shown) [Example 181] | 10% |
| CCN(CC)C(=O)C1CCCN(Cc2ccnc(-c3ccc4c(c3)CN(C3CCC(=O)NC3=O)C4=O)c2)C1 (stereo not shown) [Example 13] | 8% |
| O=C1CCC(N2Cc3cc(-c4cc(CN[C@@H]5C[C@H]5c5ccccc5)ccn4)ccc3C2=O)C(=O)N1 (stereo partly shown) [Example 111] | 10% |
| O=C1CCC(N2Cc3cc(-c4cc(CN5CCCCCC5)ccn4)ccc3C2=O)C(=O)N1 (stereo not shown) [Example 48] | 6% |
| CC(C)N(Cc1ccccc1)Cc1ccnc(-c2ccc3c(c2)CN(C2CCC(=O)NC2=O)C3=O)c1 (stereo not shown) [Example 19] | 50% |
| CN(Cc1ccoc1)Cc1ccnc(-c2ccc3c(c2)CN(C2CCC(=O)NC2=O)C3=O)c1 (stereo not shown) [Example 172] | 12% |
| O=C1CCC(N2Cc3cc(-c4cc(CN5CCC[C@H]5c5ccccc5)ccn4)ccc3C2=O)C(=O)N1 (stereo partly shown) [Example 133] | 7% |
| C[C@@H]1C[C@H](C)CN(Cc2ccnc(-c3ccc4c(c3)CN(C3CCC(=O)NC3=O)C4=O)c2)C1 (stereo partly shown) [Example 81] | 26% |
| O=C1CCC(N2Cc3cc(-c4cc(CN5CC6CC5CO6)ccn4)ccc3C2=O)C(=O)N1 (stereo not shown) [Example 79] | 8% |
| CC1(C)CN(Cc2ccnc(-c3ccc4c(c3)CN(C3CCC(=O)NC3=O)C4=O)c2)C1 (stereo not shown) [Example 51] | 11% |
| CC1CCCN1Cc1ccnc(-c2ccc3c(c2)CN(C2CCC(=O)NC2=O)C3=O)c1 (stereo not shown) [Example 20] | 11% |
| O=C1CCC(N2Cc3cc(-c4cc(CN5CCC(Cc6ccccc6)CC5)ccn4)ccc3C2=O)C(=O)N1 (stereo not shown) [Example 38] | 6% |
| COc1ccc(CCNCc2ccnc(-c3ccc4c(c3)CN(C3CCC(=O)NC3=O)C4=O)c2)cc1 (stereo not shown) [Example 95] | 17% |
| C[C@H]1CCCN(Cc2ccnc(-c3ccc4c(c3)CN(C3CCC(=O)NC3=O)C4=O)c2)C1 (stereo partly shown) [Example 73] | 13% |
| O=C1CCC(N2Cc3cc(-c4cc(CN5CC(c6ccccc6)C5)c(Cl)cn4)ccc3C2=O)C(=O)N1 (stereo not shown) [Example 186] | 8% |
| Cc1ccc(CN(C)Cc2ccnc(-c3ccc4c(c3)CN(C3CCC(=O)NC3=O)C4=O)c2)cc1 (stereo not shown) [Example 161] | 17% |
| CN(Cc1ccnc(-c2ccc3c(c2)CN(C2CCC(=O)NC2=O)C3=O)c1)Cc1cnc2ccccc2n1 (stereo not shown) [Example 183] | 10% |
| CN(C)CCN(C)Cc1ccnc(-c2ccc3c(c2)CN(C2CCC(=O)NC2=O)C3=O)c1 (stereo not shown) [Example 21] | 4% |
| O=C1CCC(N2Cc3cc(-c4cc(CNCCOc5ccccc5)ccn4)ccc3C2=O)C(=O)N1 (stereo not shown) [Example 103] | 1% |
| CN(Cc1ccc(S(C)(=O)=O)cc1)Cc1ccnc(-c2ccc3c(c2)CN(C2CCC(=O)NC2=O)C3=O)c1 (stereo not shown) [Example 157] | 8% |
| O=C1CCC(N2Cc3cc(-c4cc(CN5CCCC(c6ccccc6)C5)ccn4)ccc3C2=O)C(=O)N1 (stereo not shown) [Example 143] | 1% |
| O=C1CCC(N2Cc3cc(-c4cc(CN5CCC6CCCC65)ccn4)ccc3C2=O)C(=O)N1 (stereo not shown) [Example 60] | 19% |
| CC1(C)CCCN1Cc1ccnc(-c2ccc3c(c2)CN(C2CCC(=O)NC2=O)C3=O)c1 (stereo not shown) [Example 117] | 3% |
| CN[C@@H]1CCCC[C@H]1N(C)Cc1ccnc(-c2ccc3c(c2)CN(C2CCC(=O)NC2=O)C3=O)c1 (stereo partly shown) [Example 140] | 22% |
| CN(Cc1ccc(C#N)cc1)Cc1ccnc(-c2ccc3c(c2)CN(C2CCC(=O)NC2=O)C3=O)c1 (stereo not shown) [Example 150] | 17% |
| O=C1CCC(N2Cc3cc(-c4cc(CN[C@@H]5CCC[C@@H]5c5ccccc5)ccn4)ccc3C2=O)C(=O)N1 (stereo partly shown) [Example 84] | 4% |
| O=C1CCC(N2Cc3cc(-c4cc(CN5CC(c6cccnc6)C5)c(F)cn4)ccc3C2=O)C(=O)N1 (stereo not shown) [Example 190] | 16% |
| CC1(C)CCCN(Cc2ccnc(-c3ccc4c(c3)CN(C3CCC(=O)NC3=O)C4=O)c2)C1 (stereo not shown) [Example 85] | 7% |
| Cc1ccc(S(=O)(=O)C2CCN(Cc3ccnc(-c4ccc5c(c4)CN(C4CCC(=O)NC4=O)C5=O)c3)CC2)cc1 (stereo not shown) [Example 132] | 13% |

These entries and their values trace back to patent US11548870B2.
